# assay_target: HEK293 cells overexpressing human Rac1b (Homo sapiens)
# Construct: expressed in transfected cells; host or cells: HEK293
# run_description: Rac1b activation assay (G-LISA)
# Type: cell-based
# settings: HEK293; 50 μM, 5 minutes, GTP loading of Rac1b; read-out: G-LISA % inhibition @ 50 μM
Where a name gives a salt, the structure may show the parent alone.
quantity_kind: inhibition at 50 µM (%)
State the answer as a number, implicitly in %.

Lookup: // returns reported inhibition at 50 µM for input COc1cc2cc(-c3cccc(N)c3)nc(C)c2cc1OC [Compound 28, dihydrochloride]
Found: 27

Lookup: Repeat with COc1cc(-c2cc3cc(OC)c(OC)cc3c(C)n2)ccc1O [Compound 47, hydrochloride]
Found: 13

Lookup: Repeat with COc1ccc2c(c[n+](C)c3c4cc5c(cc4ccc23)OCO5)c1OC.[Cl-] [Compound 14, reference compound]
Found: 40

Lookup: Repeat with COc1cc2cc(-c3cccc(C(C)=O)c3)nc(C)c2cc1OC [Compound 24, hydrochloride]
Found: 19

Proceed to the following item.
Lookup: // returns reported inhibition at 50 µM for input COc1cc2cc(-c3cccc(NS(C)(=O)=O)c3)nc(C)c2cc1OC [Compound 30, hydrochloride]
Found: 12

---

# assay_target: Rac1 activated by DH/PH domain of Guanine nucleotide Exchange Factor Tiam1 (Rac1/Tiam1) (Homo sapiens, UniProt P63000)
# Construct: made in house; host or cells: E. coli BL21 Codon+RIL
# run_description: Nucleotide binding assay: BODIPY-GTP binding to Rac1 activated by Tiam1 DH/PH
# Assay type: biochemical
# settings: final concentration of 50 μM; Rac1/Tiam1; read-out: Rac1 % inhibition of BODIPY-GTP binding
Would you mind labelling by inhibition at 50 µM? At or over 10% is yes, under is no.

Lookup: Does COc1ccc(-c2cc3cc(OC)c(OC)cc3c(C)n2)cn1 [Compound 35, dimethanesulfonate] have a reported inhibition at 50 µM of at least 10%?
Found: no

---

Below, each entry is listed alongside its reported inhibition at 50 µM.
# assay_target: Cdc42 (Homo sapiens)
# Construct: GST (N); made in house; host or cells: E. coli BL21 Codon+RIL
# Sequence (P60953 whole entry, species assumed): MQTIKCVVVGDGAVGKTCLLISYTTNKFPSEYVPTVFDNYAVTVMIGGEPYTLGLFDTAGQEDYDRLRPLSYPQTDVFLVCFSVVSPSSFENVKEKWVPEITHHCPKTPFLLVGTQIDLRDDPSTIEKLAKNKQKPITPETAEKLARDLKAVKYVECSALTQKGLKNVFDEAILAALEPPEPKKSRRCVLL
# run_description: Nucleotide binding assay: BODIPY-GTP binding to Cdc42
# Format: biochemical
# settings: final concentration of 50 μM; read-out: Cdc42 % inhibition of BODIPY-GTP binding
# Procedure: Fluorescence of GTP analog BODIPY-GTP increases when it binds to small G proteins. This property was used to assess ability of compounds to inhibit nucleotide binding to Rac1, Rac1b and Cdc42. […] Fluorescence recording were started (λEx: 485 nm; λEm: 538 nm) using a spectrofluorimeter (Fluoroskan; Thermolab Systems). […] Fluorescence values were recorded, and data were processed as follows: background fluorescence (unbound BODIPY-GTP) was retrieved from fluorescence values. […]
Structures can show the parent of a compound that is named as a salt.
State the answer as a number, implicitly in %.

Lookup: // returns reported inhibition at 50 µM for input COc1cc2cc(-c3ccc(C(=O)OC(C)C)cc3)nc(C)c2cc1OC [Compound 32, hydrochloride]
Found: 2

Lookup: Repeat with COc1cc2c(cc1OC)CN(Cc1cccc(OC)c1OC)CC2 [Compound 7, hydrochloride]
Found: -1

Lookup: Repeat with COc1ccc2c(c1OC)C(Cc1ccccc1)N1CCc3cc4c(cc3C1=C2)OCO4 (centres unmarked)
Found: 1

Lookup: Repeat with COc1ccc(-c2cc3cc(OC)c(OC)cc3c(C)n2)cn1 [Compound 35, dimethanesulfonate]
Found: 11

Lookup: Repeat with COc1cc2cc(-c3cccc(N)c3)nc(C)c2cc1OC [Compound 28, dihydrochloride]
Found: 3

Lookup: Repeat with CNC(=O)c1ccc(-c2cc3cc(OC)c(OC)cc3c(C)n2)cc1
Found: 3

Lookup: Repeat with COc1cc2cc(-c3ccccc3N)nc(C)c2cc1OC [Compound 37, dihydrochloride]
Found: 1

Lookup: Repeat with COc1cc2cc(-c3cccc(C(C)=O)c3)[n+](C)c(C)c2cc1OC
Found: 7
